# experimental-system: bovine brain tubulin (vinca domain)
# procedure-details: Inhibition of [3H]vinblastine binding to tubulin (centrifugal gel filtration)
# condition-summary: test agent 0.5-100 μM, 10 μM radiotracer, 10 μM tubulin, Hill fit
Structures can show the parent of a compound that is named as a salt.
readout-name: pIC50
Give bare numbers, as −log10 of the molar value.

Study these solved cases before continuing.
compound	experimental-system	pIC50
CCC(C)[C@H](NC(=O)CN(C)C)C(=O)N(C)[C@H](C[C@@H](OC(C)=O)c1nc(C(=O)N[C@@H](Cc2ccccc2)C[C@H](C)C(=O)O)cs1)C(C)C (some centres unmarked) [WZY-III-69A]	bovine brain tubulin (vinca domain)	5.06
CC[C@]1(O)C[C@H]2CN(CCc3c([nH]c4ccccc34)[C@@](C(=O)OC)(c3cc4c(cc3OC)N(C=O)[C@H]3[C@@](O)(C(=O)OC)[C@H](OC(C)=O)[C@]5(CC)C=CCN6CC[C@]43[C@@H]65)C2)C1 [vincristine, reference compound]	bovine brain tubulin (vinca domain)	5.36
CC[C@H](C)[C@@H]([C@@H](CC(=O)N1CCC[C@H]1[C@H](OC)[C@@H](C)C(=O)N[C@@H](Cc1ccccc1)c1nccs1)OC)N(C)C(=O)[C@@H](NC(=O)[C@H](C(C)C)N(C)C)C(C)C [dolastatin 10, reference compound]	bovine brain tubulin (vinca domain)	5.34

# return pIC50 of CCC(C)[C@H](NC(=O)[C@H]1CCCCN1C)C(=O)N(C)[C@H](C[C@@H](OC(C)=O)c1nc(C(=O)N[C@@H](Cc2ccccc2)C[C@H](C)C(=O)O)cs1)C(C)C (some centres unmarked) [WZY-III-63C, trifluoroacetic acid salt] (system: bovine brain tubulin (vinca domain)) 5.25
